Reference source for all entries: patent US10106515B2

Target: recombinant human CXCR2 (Homo sapiens, UniProt P25025)
Construct: TEV protease site; Gal4-VP16 transcription factor
Sequence (P25025 whole entry, the tested form may be a part): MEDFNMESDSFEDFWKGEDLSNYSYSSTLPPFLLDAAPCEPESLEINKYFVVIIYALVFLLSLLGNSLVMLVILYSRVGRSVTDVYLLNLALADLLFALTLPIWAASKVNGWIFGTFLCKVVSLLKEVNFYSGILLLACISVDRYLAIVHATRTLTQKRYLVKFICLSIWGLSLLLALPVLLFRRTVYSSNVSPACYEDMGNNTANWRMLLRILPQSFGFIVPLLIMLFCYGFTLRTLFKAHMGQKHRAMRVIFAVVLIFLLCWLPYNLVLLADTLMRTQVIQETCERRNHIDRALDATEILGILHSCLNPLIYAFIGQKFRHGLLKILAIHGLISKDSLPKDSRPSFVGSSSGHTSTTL
Assay: CXCR2 Tango assay
Format: cell-based
Conditions: mean pIC50 of multiple test results; stimulated with 80 nM hCXCL1; reporter gene blue/green emission ratio; read-out: pIC50 (CXCR2 Tango assay) (converted)
Text: The assay measures ligand-induced activation of the receptor CXCR2 in a stable cell line containing the recombinant human CXCR2 linked to a TEV protease site and a Gal4-VP16 transcription factor (Invitrogen). […] The ability of a compound to inhibit CXCR2 activation is indirectly assessed by measuring the reporter gene activity. […]
Some molecules, each annotated with its measured IC50.

// solved cases for IC50 follow
Problem: GET /values?readout=IC50&item= CC1=CCCC1NC(=O)Nc1ccc(Cl)c(S(=O)(=O)N(C)C)c1O (centres unmarked)
Result: ≤ 10 nM

Problem: GET /values?readout=IC50&item= CC1(S(=O)(=O)c2c(Cl)ccc(NC(=O)N[C@@H]3CCC=C3Cl)c2O)CC(O)C1 (some centres unmarked)
Result: ≤ 1 nM

Problem: GET /values?readout=IC50&item= CC1=CCC[C@H]1NC(=O)Nc1ccc(Cl)c(S(=O)(=O)C2CC3(COC3)C2)c1O
Result: ≤ 1 nM

New cases:
Problem: GET /values?readout=IC50&item= CC1=CCCC1NC(=O)Nc1ccc(Cl)c(S(=O)(=O)[C@H]2C[C@H](N(C)C)C2)c1O (some centres unmarked)
Result: ≤ 10 nM

Problem: GET /values?readout=IC50&item= CC(C)(C(F)(F)F)S(=O)(=O)c1c(Cl)ccc(NC(=O)NC2CCC=C2Cl)c1O (centres unmarked)
Result: ≤ 1 nM

Problem: GET /values?readout=IC50&item= CC(C)S(=O)(=O)c1c(Cl)ccc(NC(=O)NC2C=CCC2)c1O (centres unmarked)
Result: ≤ 10 nM
